For each of the substances below, state its % inhibition of human Factor XI mRNA levels.
System: human Factor XI mRNA
Assay: Antisense inhibition in HepG2 cells by microwalk gapmers, 75 nM, lipofectin (Example 3)
Format: cell-based
Conditions: HepG2 cells, 75 nM, oligonucleotides targeted to nucleobases 1275 to 1318 of SEQ ID NO: 1
In the oligonucleotide strings, read from the 5' end, every base follows the letter of its sugar. An asterisk marks phosphorothioate; unmarked linkages are phosphodiester. Other units and linkages are bracketed, terminal groups are in braces. A string of capitals states the bases alone. e = 2'-O-(2-methoxyethyl) (MOE); [5mC] = 5-methylcytosine; d = 2'-deoxy (DNA)
Give bare numbers, in %.

Consider the following illustrative entries.
416920 (antisense eA*e[5mC]*eA*dG*dT*dT*dT*d[5mC]*dT*dG*dG*d[5mC]*dA*dG*dG*d[5mC]*d[5mC]*eT*e[5mC]*eG) [compound 416920] = 88
416865 (antisense eT*eG*eG*e[5mC]*eA*dG*d[5mC]*dG*dG*dA*d[5mC]*dG*dG*d[5mC]*dA*eT*eT*eG*eG*eT) [compound 416865] = 88
413482 (antisense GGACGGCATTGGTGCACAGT; sugars from the 5' end e5 d10 e5, backbone and methylation of C not given here) [compound 413482] = 89
417003 (antisense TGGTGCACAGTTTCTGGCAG; 2-13-5 gapmer, wing sugar chemistry not given here, further chemistry not given here) [compound 417003] = 89
417000 (antisense eT*eG*d[5mC]*dA*d[5mC]*dA*dG*dT*dT*dT*d[5mC]*dT*dG*dG*d[5mC]*eA*eG*eG*e[5mC]*e[5mC]) [compound 417000] = 89

Below are 2 substances. Give each one its % inhibition of human Factor XI mRNA levels.
1. 416928 (antisense eA*eT*eT*dG*dG*dT*dG*d[5mC]*dA*d[5mC]*dA*dG*dT*dT*dT*d[5mC]*dT*eG*eG*e[5mC]) [compound 416928]
2. 416933 (antisense eA*e[5mC]*eG*dG*d[5mC]*dA*dT*dT*dG*dG*dT*dG*d[5mC]*dA*d[5mC]*dA*dG*eT*eT*eT) [compound 416933]

1. 91
2. 92

###

Experiment: Cynomolgus monkeys: hematology assays (Example 29)
Assay type: in vivo
Settings: day 71
In the oligonucleotide strings, read from the 5' end, every base follows the letter of its sugar. An asterisk marks phosphorothioate; unmarked linkages are phosphodiester. Other units and linkages are bracketed, terminal groups are in braces. A string of capitals states the bases alone. e = 2'-O-(2-methoxyethyl) (MOE); [5mC] = 5-methylcytosine; d = 2'-deoxy (DNA)
measuredParameter: platelet count (µL⁻¹)
Numbers only, in µL⁻¹.

ISIS 416850: gapmer of Table 8 (antisense eT*eG*e[5mC]*eA*e[5mC]*dA*dG*dT*dT*dT*d[5mC]*dT*dG*dG*d[5mC]*eA*eG*eG*e[5mC]*e[5mC]) = 465000
ISIS 417002: gapmer of Table 8 (antisense eG*eG*dT*dG*d[5mC]*dA*d[5mC]*dA*dG*dT*dT*dT*d[5mC]*dT*dG*eG*e[5mC]*eA*eG*eG) = 490000
ISIS 416858: gapmer of Table 8 (antisense eA*e[5mC]*eG*eG*e[5mC]*dA*dT*dT*dG*dG*dT*dG*d[5mC]*dA*d[5mC]*eA*eG*eT*eT*eT) = 286000

Moving on to the next substance.
Record request: platelet count value, item ISIS 416864: gapmer of Table 8 (antisense eG*eG*e[5mC]*eA*eG*d[5mC]*dG*dG*dA*d[5mC]*dG*dG*d[5mC]*dA*dT*eT*eG*eG*eT*eG)
394000
